Source listed as patent US4820694A.

- Test system: Pasteurella hemolytica 41D
- Experiment Summary: broth-dilution microtiter MIC test
- Assay type: cell-based
- Measurement Parameters: Pasteurella, 41D
- Experimental: The MIC's in Table III were determined by standard agar-dilution assays. The MIC's in Table IV were obtained using conventional brothdilution microtiter tests.
# key: entry, value: MIC
Give the value in µg/mL but do not write µg/mL after it.

Reference set (5 entries):
*Q* Consider the compound shown here: CCC1OC(=O)CC(O)C(C)C(OC2OC(C)C(O)C(N(C)C)C2O)C(CC=O)CC(C)C(=O)C=CC(C)=CC1COC1OC(C)C(OC(C)=O)C(OC(=O)COc2ccccc2)C1OC (stereo not shown) What is its recorded MIC?
*A* 50

*Q* Name the recorded MIC for CCC1OC(=O)CC(O)C(C)C(OC2OC(C)C(O)C(N(C)C)C2O)C(CCOc2ccccc2)CC(C)C(=O)C=CC(C)=CC1COC1OC(C)C2OC(=O)OC2C1OC (stereo not shown) .
*A* 50

*Q* Quick one: MIC of CCC1OC(=O)CC(O)C(C)C(OC2OC(C)C(O)C(N(C)C)C2O)C(CCOc2ccccc2)CC(C)C(=O)C=CC(C)=CC1COC1OC(C)C=CC1OC (stereo not shown) ?
*A* 50

*Q* For the compound CCC1OC(=O)CC(O)C(C)C(OC2OC(C)C(OC3CC(C)(O)C(O)C(C)O3)C(N(C)C)C2OC(C)=O)C(CC=O)CC(C)C(=O)C=CC(C)=CC1COC1OC(C)C2OC(=O)OC2C1OC (stereo not shown) , what MIC is on record?
*A* 50

*Q* Can you share its MIC? I mean this compound: CCC1OC(=O)CC(O)C(C)C(OC2OC(C)C(O)C(N(C)C)C2O)C(CC=O)CC(C)C(=O)C=CC(C)=CC1COC1OC(C)C(OC(=O)CC(C)C)C(O)C1OC (stereo not shown)
*A* 50

From here, focus on the item given below.
*Q* Find the recorded MIC belonging to CCC1OC(=O)CC(O)C(C)C(OC2OC(C)C(O)C(N(C)C)C2O)C(CC=O)CC(C)C(=O)C=CC(C)=CC1COC1OC(C)C2OC(=O)OC2C1OC (stereo not shown) [Compound 51, Lactenocin-3",4"-Carbonate Derivative] and report it.
*A* 12.5
